Cited source: ChEMBL document CHEMBL4020841

MEASUREMENT_DESCRIPTION: Inhibition of Mycobacterium tuberculosis TMPK expressed in Escherichia coli BLi5 using dTMP as substrate in presence of ATP by spectrophotometric based LDH/PK/nucleoside diphosphate kinase enzyme coupled assay
Simple rule here: IC50 less than 30 µM is Criterion met, otherwise Criterion not met.

{"CHEMICAL_SMILES": "Cc1cn(C2CN(CCCc3cccc(Oc4ccccc4)c3)C2)c(=O)[nH]c1=O", "CLASS_LABEL": "Criterion not met"}
{"CHEMICAL_SMILES": "Cc1cn(C2CCN(Cc3ccc4ccccc4c3)CC2)c(=O)[nH]c1=O", "CLASS_LABEL": "Criterion met"}
{"CHEMICAL_SMILES": "Cc1cn(C2CCN(Cc3cccc(C(=O)O)n3)CC2)c(=O)[nH]c1=O", "CLASS_LABEL": "Criterion not met"}

Req: Say whether its IC50 is strictly beneath 30 µM. Entry: `Cc1cn(C2CCN(Cc3cccc(Oc4ccccc4)c3)CC2)c(=O)[nH]c1=O`
Resp: Criterion met

Req: Say whether its IC50 is strictly beneath 30 µM. Entry: `Cc1cn(C2CCN(C(=O)c3cccc(Oc4ccccc4)c3)CC2)c(=O)[nH]c1=O`
Resp: Criterion not met

Req: Say whether its IC50 is strictly beneath 30 µM. Entry: `Cc1ccc(CN2CCC(n3cc(C)c(=O)[nH]c3=O)CC2)cc1`
Resp: Criterion not met

Req: Say whether its IC50 is strictly beneath 30 µM. Entry: `Cc1cn(C2CCN(Cc3cc4ccccc4cn3)CC2)c(=O)[nH]c1=O`
Resp: Criterion met

Req: Say whether its IC50 is strictly beneath 30 µM. Entry: `Cc1cn(C2CCN(Cc3ccco3)CC2)c(=O)[nH]c1=O`
Resp: Criterion not met

###

MEASUREMENT_DESCRIPTION: Inhibition of Mycobacterium tuberculosis TMPK expressed in Escherichia coli BLi5 using dTMP as substrate in presence of ATP by spectrophotometric based LDH/PK/nucleoside diphosphate kinase enzyme coupled assay
Simple rule here: IC50 less than 80 µM is MET, otherwise NOT MET.

Here's what some known entries look like.
{"CHEMICAL_SMILES": "Cc1cn(C2CCN(C(=O)c3ccc(Oc4ccccc4)cc3)CC2)c(=O)[nH]c1=O", "CLASS_LABEL": "NOT MET"}
{"CHEMICAL_SMILES": "Cc1cn(C2CCN(Cc3nccc4ccccc34)CC2)c(=O)[nH]c1=O", "CLASS_LABEL": "MET"}
{"CHEMICAL_SMILES": "Cc1cn(C2CCN(Cc3ccccn3)CC2)c(=O)[nH]c1=O", "CLASS_LABEL": "NOT MET"}
{"CHEMICAL_SMILES": "Cc1cn(C2CCN(CC3CCCCC3)CC2)c(=O)[nH]c1=O", "CLASS_LABEL": "NOT MET"}
{"CHEMICAL_SMILES": "Cc1cn(C2CCN(CCc3cccc(Oc4ccccc4)c3)CC2)c(=O)[nH]c1=O", "CLASS_LABEL": "MET"}
{"CHEMICAL_SMILES": "Cc1cn(C2CCN(Cc3cccnc3)CC2)c(=O)[nH]c1=O", "CLASS_LABEL": "MET"}

Req: Say whether its IC50 is strictly beneath 80 µM. Entry: `Cc1cn(C2CN(Cc3cccc(Oc4ccccc4)c3)C2)c(=O)[nH]c1=O`
Resp: NOT MET

Req: Say whether its IC50 is strictly beneath 80 µM. Entry: `Cc1cn(C2CCN(Cc3cccc4ccccc34)CC2)c(=O)[nH]c1=O`
Resp: MET

Req: Say whether its IC50 is strictly beneath 80 µM. Entry: `Cc1cn(C2CCN(Cc3ccc(Cl)cc3)CC2)c(=O)[nH]c1=O`
Resp: MET

Req: Say whether its IC50 is strictly beneath 80 µM. Entry: `Cc1cn(C2CCN(Cc3ccc(C(=O)O)cc3)CC2)c(=O)[nH]c1=O`
Resp: NOT MET
